Test system: NCI-H522 lung
measurement_description: NCI-60 one-dose screen, 48 h
assay_conditions: 10 µM unless noted
Compounds without any hit were thinned out: in the full panel of roughly 83,000, 20% have a hit. Calls of active or inactive are those of the source. Rule for the calls: active = growth percent below 10; inactive = the rest.
Choose the fitting class; nothing outside 1.0 (active), 0.0 (inactive) is accepted.

Worked set:
molecule: COc1nc2c(c(=O)n1C)CN(c1ccccc1)C(=O)CN2C
tested_system: NCI-H522 lung
answer_label: 0.0

molecule: O=C1OC(c2nc3ccccc3s2)=C/C1=C\c1ccc(O)cc1
tested_system: NCI-H522 lung
answer_label: 0.0

molecule: CC(C)(C)c1ccc(/C=C/C(=O)Nc2ccc(O)cc2)cc1
tested_system: NCI-H522 lung
answer_label: 0.0

molecule: O=C(Nc1cccc(C(F)(F)F)c1)Nc1cccc(C(F)(F)F)c1
tested_system: NCI-H522 lung
answer_label: 1.0

molecule: CCCCCCCCCCCC(c1ccccc1)[N+](C)(C)C (stereo not given)
tested_system: NCI-H522 lung
answer_label: 1.0

molecule: COc1cccc(C(=O)NCCNc2cc(-c3cn(-c4ccccc4)nc3-c3cccc(OC)c3)ccn2)c1
tested_system: NCI-H522 lung
answer_label: 0.0

# outcome recorded in this test, key = CC(C)(C)CC(C)(C)Nc1c(-c2ccncc2)nc2cnccn12 0.0

Item: N#Cc1c(N)nn(C(=O)c2ccc(NC(=O)c3ccccn3)cc2)c1-c1ccc(Cl)cc1 0.0

Item: O=C1CCc2c(sc3[nH]c(=S)n(-c4ccc(OC(F)(F)F)cc4)c(=O)c23)C1 1.0

Item: COc1ccc2c(c1)O/C(=C\c1cccc(OCC(=O)Nc3nc(C)c(C)s3)c1)C2=O 1.0
